I'd appreciate it if you could supply IC50 values for the items below.
Target: human EHMT2 913-1193 (Homo sapiens)
Construct: recombinant purified human EHMT2 913-1193, Viva; purchased Viva
Sequence (Q96KQ7 913-1193): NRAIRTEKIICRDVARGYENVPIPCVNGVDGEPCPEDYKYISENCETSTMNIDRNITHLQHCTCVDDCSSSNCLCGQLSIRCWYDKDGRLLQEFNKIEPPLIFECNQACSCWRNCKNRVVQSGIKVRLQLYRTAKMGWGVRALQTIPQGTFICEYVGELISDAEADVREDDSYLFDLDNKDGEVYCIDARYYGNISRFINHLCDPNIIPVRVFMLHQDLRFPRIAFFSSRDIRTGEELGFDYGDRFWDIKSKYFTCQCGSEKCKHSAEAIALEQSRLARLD
Test: EHMT2 enzyme assay on histone peptide substrate
Type: biochemical
Settings: Table 3; histone H3 1-15 peptide, balanced conditions; read-out: EHMT2 PEP (IC50 μM)

Known results for compounds:
chemSmiles	IC50
CNc1cc(C)nc(Nc2ccc(OC)c(C#CCNCCN(C)C)c2)n1	1 to 10 µM
CNc1cc(C)nc(Nc2ccc(C)c(C(=O)Nc3ncn(C)n3)c2)n1	> 10 µM
CNc1cc(C)nc(Nc2ccc(OC)c(CNCCN3CC[C@@H](C)C3)c2)n1	1 to 10 µM
CNc1cc(C)nc(Nc2ccc(OC)c(CNC[C@@H](C)N3CCCC3)c2)n1	0.1 to 1 µM

Now let's try a different one.
Value of measured IC50 for the entry "CNc1cc(C)nc(Nc2ccc(Cl)c(C(=O)NCCN3CCCC3)c2)n1" : 0.1 to 1 µM

Source listed as patent US20200317642A1.
